# 5HT Rel (%) per entry
Biological target: SERT (Rattus norvegicus, UniProt P31652)
Sequence (P31652 whole entry): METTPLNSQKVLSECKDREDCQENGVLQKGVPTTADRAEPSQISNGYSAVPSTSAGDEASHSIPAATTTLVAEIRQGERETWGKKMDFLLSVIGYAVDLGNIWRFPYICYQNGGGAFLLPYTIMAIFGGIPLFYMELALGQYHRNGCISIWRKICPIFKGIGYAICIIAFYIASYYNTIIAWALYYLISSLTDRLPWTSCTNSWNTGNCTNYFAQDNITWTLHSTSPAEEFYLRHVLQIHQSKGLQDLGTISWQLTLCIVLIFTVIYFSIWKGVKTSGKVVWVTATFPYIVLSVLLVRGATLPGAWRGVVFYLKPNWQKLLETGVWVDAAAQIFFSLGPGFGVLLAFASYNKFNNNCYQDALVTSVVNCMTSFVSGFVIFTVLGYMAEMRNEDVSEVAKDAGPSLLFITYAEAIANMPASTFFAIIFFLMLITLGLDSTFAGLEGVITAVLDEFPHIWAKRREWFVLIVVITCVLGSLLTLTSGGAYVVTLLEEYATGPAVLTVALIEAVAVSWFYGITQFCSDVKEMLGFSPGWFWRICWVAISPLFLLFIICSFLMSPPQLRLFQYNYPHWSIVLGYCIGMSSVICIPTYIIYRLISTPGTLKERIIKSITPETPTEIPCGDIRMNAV
Assay: 5-HT release assay (synaptosomes, [3H]5-HT)
Format: biochemical
Set-up: the supernatants were retained on ice (synaptosomal preparation); from tissue; host or cells: rat whole brain minus cerebellum and caudate, synaptosomes
Details: Table 4; % EC50 of release
// note: answer is a bare numeric in %

Q. Requested read-out: 5HT Rel (%). Entry: CC1NCCOC1c1cccc(C#N)c1.Cl (centres unmarked)
A. 99

New cases:
Q. Requested read-out: 5HT Rel (%). Entry: COc1cccc(C2OCCNC2C)c1.COc1cccc(C2OCCNC2C)c1.O=C(O)/C=C/C(=O)O (centres unmarked)
A. 78

Q. Another compound: CC1NCCOC1c1ccc(F)cc1.CC1NCCOC1c1ccc(F)cc1.O=C(O)/C=C/C(=O)O (centres unmarked)
A. 94

Q. Another compound: CC1NCCOC1c1cccc(O)c1.Cl (centres unmarked)
A. 70

Q. Another compound: CC1NCCOC1c1ccc(C#N)cc1.CC1NCCOC1c1ccc(C#N)cc1.O=C(O)/C=C/C(=O)O (centres unmarked)
A. 53
